- Tested on: SF-268 CNS
- TEST NAME: NCI-60 one-dose screen, 48 h (100 = growth as untreated, 0 = no growth, -100 = all killed)
- PARTICULARS: 10 µM unless noted
This is part of a sample that, as a whole, favours compounds with a hit. Of some 83,000 tested, about 20% had one in any assay.
# key: entry, value: growth
VALUE KIND: growth (%)

>>> reported("Cn1c2c(c3ccccc31)CCN1C[C@@H]3CCCC[C@H]3C[C@@H]21")
16.1
>>> reported("CCOC(=O)/C(=C\\c1ccc(-c2ccccc2)cc1)C(C)=O")
91
>>> reported("Cc1ccc(N=C=C(c2ccccc2)c2ccccc2)cc1")
93.5
>>> reported("COC(=O)c1nc(=S)[nH]c(C(=O)OC)c1C(=O)c1ccc2ccccc2c1")
102
>>> reported("CCOC(=O)/C=C/c1ccc([N+](=O)[O-])o1")
76.2
>>> reported("C1=C(c2ccccc2)C(c2ccc(OCCN3CCCCC3)cc2)Oc2ccccc21 (configuration not stated)")
62.2
>>> reported("N#Cc1ccc([N+](=O)[O-])o1")
103
>>> reported("S=C(N/N=C/c1ccccn1)Nc1ccccn1")
32
>>> reported("Cn1c2ccccc2c2nnc(N/N=C/c3ccccn3)nc21")
6.74
>>> reported("CCCCCCCCCCCCCCCC[N+](C)(CCO)Cc1cnc[nH]1 (configuration not stated)")
-66.1
>>> reported("CC(C)(C)c1ccc(O)c(C2CCCCC2)c1")
99.4
>>> reported("CNc1ccc2c(c1)c1ccccc1n2C")
95.1
